SUBJECT_OF_TEST: T1, TNFR1 (Homo sapiens, UniProt P19438)
T1 chain: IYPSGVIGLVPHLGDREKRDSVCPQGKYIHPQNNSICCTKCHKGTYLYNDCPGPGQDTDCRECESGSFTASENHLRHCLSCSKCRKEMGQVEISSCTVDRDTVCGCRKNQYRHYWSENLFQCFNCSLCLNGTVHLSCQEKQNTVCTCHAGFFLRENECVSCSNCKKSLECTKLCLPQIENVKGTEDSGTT
TEST_PROTOCOL: yeast display SC50

- BINDER: "A28G (designed binder) MTLQELLREEALRRAEAEAFRYALELLGEKFPEQKEYLLDLAEEIESQIRSLSGVDVEDVRKFLDKEWAWVKELLAEHPAELAEVEAARAARLAELRAEVEAKVAA"
  apparent Kd (screen), nM: 0.446
- BINDER: "F31D (designed binder) MTLQELLREEALRRAEAEAFRYALELLAEKDPEQKEYLLDLAEEIESQIRSLSGVDVEDVRKFLDKEWAWVKELLAEHPAELAEVEAARAARLAELRAEVEAKVAA"
  apparent Kd (screen), nM: 2.25
- BINDER: "R50M (designed binder) MTLQELLREEALRRAEAEAFRYALELLAEKFPEQKEYLLDLAEEIESQIMSLSGVDVEDVRKFLDKEWAWVKELLAEHPAELAEVEAARAARLAELRAEVEAKVAA"
  apparent Kd (screen), nM: 0.593
- BINDER: "A90R (designed binder) MTLQELLREEALRRAEAEAFRYALELLAEKFPEQKEYLLDLAEEIESQIRSLSGVDVEDVRKFLDKEWAWVKELLAEHPAELAEVEAARRARLAELRAEVEAKVAA"
  apparent Kd (screen), nM: 0.718
- BINDER: "H78I (designed binder) MTLQELLREEALRRAEAEAFRYALELLAEKFPEQKEYLLDLAEEIESQIRSLSGVDVEDVRKFLDKEWAWVKELLAEIPAELAEVEAARAARLAELRAEVEAKVAA"
  apparent Kd (screen), nM: 1.16
- BINDER: "A19I (designed binder) MTLQELLREEALRRAEAEIFRYALELLAEKFPEQKEYLLDLAEEIESQIRSLSGVDVEDVRKFLDKEWAWVKELLAEHPAELAEVEAARAARLAELRAEVEAKVAA"
  apparent Kd (screen), nM: 0.956
- BINDER: "L6S (designed binder) MTLQESLREEALRRAEAEAFRYALELLAEKFPEQKEYLLDLAEEIESQIRSLSGVDVEDVRKFLDKEWAWVKELLAEHPAELAEVEAARAARLAELRAEVEAKVAA"
  apparent Kd (screen), nM: 4.83
- BINDER: "G54N (designed binder) MTLQELLREEALRRAEAEAFRYALELLAEKFPEQKEYLLDLAEEIESQIRSLSNVDVEDVRKFLDKEWAWVKELLAEHPAELAEVEAARAARLAELRAEVEAKVAA"
  apparent Kd (screen), nM: 1.4

Source of measurements: paper PMC12416549
